Molecular target: Fatty acid synthase (Homo sapiens)
Sequence (P49327 whole entry, the tested form may be a part): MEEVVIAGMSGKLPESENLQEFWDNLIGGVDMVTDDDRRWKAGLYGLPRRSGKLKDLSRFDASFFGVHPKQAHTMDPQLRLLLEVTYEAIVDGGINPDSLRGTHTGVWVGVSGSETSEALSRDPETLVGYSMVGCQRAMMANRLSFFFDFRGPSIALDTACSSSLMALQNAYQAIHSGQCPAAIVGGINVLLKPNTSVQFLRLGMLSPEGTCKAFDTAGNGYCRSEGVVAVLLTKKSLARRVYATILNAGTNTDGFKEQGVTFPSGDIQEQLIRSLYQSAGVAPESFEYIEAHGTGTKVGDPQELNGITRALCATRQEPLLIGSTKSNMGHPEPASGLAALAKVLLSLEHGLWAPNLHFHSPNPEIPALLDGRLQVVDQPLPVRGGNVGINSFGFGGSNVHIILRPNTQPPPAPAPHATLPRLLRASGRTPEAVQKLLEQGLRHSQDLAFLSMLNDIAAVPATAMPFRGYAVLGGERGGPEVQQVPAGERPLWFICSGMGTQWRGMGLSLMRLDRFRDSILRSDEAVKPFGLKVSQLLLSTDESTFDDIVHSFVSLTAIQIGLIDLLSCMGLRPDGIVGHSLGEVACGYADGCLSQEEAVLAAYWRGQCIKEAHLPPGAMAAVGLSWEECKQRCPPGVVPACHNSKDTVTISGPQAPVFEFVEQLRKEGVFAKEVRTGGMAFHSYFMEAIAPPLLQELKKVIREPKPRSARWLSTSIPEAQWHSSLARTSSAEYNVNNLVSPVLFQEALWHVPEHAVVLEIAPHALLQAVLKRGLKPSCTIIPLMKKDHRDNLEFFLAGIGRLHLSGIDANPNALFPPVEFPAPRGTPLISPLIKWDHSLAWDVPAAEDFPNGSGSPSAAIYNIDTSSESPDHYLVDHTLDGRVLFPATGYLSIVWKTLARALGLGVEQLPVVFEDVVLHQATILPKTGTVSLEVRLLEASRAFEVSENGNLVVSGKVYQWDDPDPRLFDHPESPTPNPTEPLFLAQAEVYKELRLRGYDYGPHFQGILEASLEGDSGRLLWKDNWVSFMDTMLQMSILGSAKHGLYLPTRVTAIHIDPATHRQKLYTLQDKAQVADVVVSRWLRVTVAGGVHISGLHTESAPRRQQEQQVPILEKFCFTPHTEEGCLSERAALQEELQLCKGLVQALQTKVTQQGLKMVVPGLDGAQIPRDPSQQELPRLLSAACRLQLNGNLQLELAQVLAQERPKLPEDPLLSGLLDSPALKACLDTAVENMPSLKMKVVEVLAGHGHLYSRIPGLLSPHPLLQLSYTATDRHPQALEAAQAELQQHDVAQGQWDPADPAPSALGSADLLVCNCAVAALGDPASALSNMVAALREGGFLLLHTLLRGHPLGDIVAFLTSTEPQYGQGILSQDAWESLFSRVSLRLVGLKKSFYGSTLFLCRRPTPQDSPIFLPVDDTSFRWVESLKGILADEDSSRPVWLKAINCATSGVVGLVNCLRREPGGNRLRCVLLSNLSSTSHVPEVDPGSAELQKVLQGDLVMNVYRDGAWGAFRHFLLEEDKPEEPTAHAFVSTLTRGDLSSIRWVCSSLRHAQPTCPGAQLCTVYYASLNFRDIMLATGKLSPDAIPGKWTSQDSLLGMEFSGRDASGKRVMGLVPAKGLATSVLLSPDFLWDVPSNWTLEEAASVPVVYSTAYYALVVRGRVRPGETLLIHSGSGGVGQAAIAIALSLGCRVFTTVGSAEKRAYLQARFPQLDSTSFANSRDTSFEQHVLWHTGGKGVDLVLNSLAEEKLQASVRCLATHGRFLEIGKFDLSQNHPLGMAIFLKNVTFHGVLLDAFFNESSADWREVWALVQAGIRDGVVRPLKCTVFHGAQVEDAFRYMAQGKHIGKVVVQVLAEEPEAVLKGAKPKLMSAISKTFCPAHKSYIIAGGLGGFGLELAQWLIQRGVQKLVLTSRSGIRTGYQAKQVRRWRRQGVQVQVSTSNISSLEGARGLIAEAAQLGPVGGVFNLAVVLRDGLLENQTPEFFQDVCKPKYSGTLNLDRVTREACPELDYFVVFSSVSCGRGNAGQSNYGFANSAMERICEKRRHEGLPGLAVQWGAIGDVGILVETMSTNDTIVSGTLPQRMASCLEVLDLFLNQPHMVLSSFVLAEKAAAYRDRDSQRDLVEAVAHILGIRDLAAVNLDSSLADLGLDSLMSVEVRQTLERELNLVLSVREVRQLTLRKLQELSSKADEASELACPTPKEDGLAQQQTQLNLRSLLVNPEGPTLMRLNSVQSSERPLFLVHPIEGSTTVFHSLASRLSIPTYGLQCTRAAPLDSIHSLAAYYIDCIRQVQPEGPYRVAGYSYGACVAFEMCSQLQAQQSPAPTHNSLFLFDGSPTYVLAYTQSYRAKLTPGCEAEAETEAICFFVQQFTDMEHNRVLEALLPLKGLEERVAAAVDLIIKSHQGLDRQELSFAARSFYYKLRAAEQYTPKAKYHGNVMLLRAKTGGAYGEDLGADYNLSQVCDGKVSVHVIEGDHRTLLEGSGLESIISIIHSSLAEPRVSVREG
Assay: FAS thioesterase domain inhibitors, dose response, biochemical, endpoint fluorescence intensity, uHTS hits (AID 624327);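 note: fluorescence from hydrolysis of an O-methyl fluorescein acyl ester substrate by the enzyme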
Assay type: functional
Activity calls are given as the source filed them. Cut-off read from the data, not from the text of the source: active = IC50 of 20 µM or less and inactive = more.
Outcomes: true (1) = active, false (0) = inactive

                                   molecule                         measured_on  label_class
0  CC(C)(C)SCCNC(=O)c1ccc(Cl)c([N+](=O)[O-])c1  Fatty acid synthase (Homo sapiens)     true (1)
1  Cc1ccc(C(=O)CN(CCCC(N)=O)S(=O)(=O)c2ccc([N+](=O)[O-])cc2)cc1  Fatty acid synthase (Homo sapiens)     true (1)
2  O=C(NNc1c(Cl)cc(Cl)cc1Cl)c1cccc([N+](=O)[O-])c1  Fatty acid synthase (Homo sapiens)     true (1)
3  COc1ccc(NC(=O)CN(c2ccc([N+](=O)[O-])cc2)S(=O)(=O)c2ccccc2)cc1  Fatty acid synthase (Homo sapiens)     true (1)
4  O=C(CC(=O)N/N=C\c1ccc([N+](=O)[O-])cc1)NCCc1ccccc1  Fatty acid synthase (Homo sapiens)    false (0)
5  Cc1ccc(N2C(=O)C3CC(c4ccccc4)=C4C5C=CC(C6C(=O)N(c7ccc(C)cc7C)C(=O)C56)C4C3C2=O)c(C)c1 (stereo unspecified)  Fatty acid synthase (Homo sapiens)     true (1)
